Listed below: shrunken log2 fold change values for each entry.
system: Escherichia coli TOP10; assay: shrunken log2 fold change of peptide-encoding DNA abundance (4.5 h post-induction vs induction); higher = less antimicrobial activity (less host growth inhibition); details: time post-induction: 4.5 h; library: site-saturation at positions 5, 18, 19, 20

Examples from the recorded data:
• RRIRARPPRLPRPRPRPMLTPRP = 0.466
• RRIRSRPPRLPRPRPRPDPPPRP = 0.746
• RRIRIRPPRLPRPRPRPSQAPRP = -0.244
• RRIRCRPPRLPRPRPRPDDTPRP = -0.36
• RRIRRRPPRLPRPRPRPTMHPRP = 0.539

INPUT: Report shrunken log2 fold change on Escherichia coli TOP10 for this entry: RRIRERPPRLPRPRPRPSSKPRP
OUTPUT: -0.639

INPUT: Report shrunken log2 fold change on Escherichia coli TOP10 for this entry: RRIRERPPRLPRPRPRPAFMPRP
OUTPUT: -0.154

INPUT: Report shrunken log2 fold change on Escherichia coli TOP10 for this entry: RRIRRRPPRLPRPRPRPANCPRP
OUTPUT: 0.00326

INPUT: Report shrunken log2 fold change on Escherichia coli TOP10 for this entry: RRIRARPPRLPRPRPRPLANPRP
OUTPUT: 0.255

INPUT: Report shrunken log2 fold change on Escherichia coli TOP10 for this entry: RRIRRRPPRLPRPRPRPTQAPRP
OUTPUT: -0.0717

INPUT: Report shrunken log2 fold change on Escherichia coli TOP10 for this entry: RRIRIRPPRLPRPRPRPYKIPRP
OUTPUT: -0.688

INPUT: Report shrunken log2 fold change on Escherichia coli TOP10 for this entry: RRIRLRPPRLPRPRPRPEIPPRP
OUTPUT: -0.0569

INPUT: Report shrunken log2 fold change on Escherichia coli TOP10 for this entry: RRIRNRPPRLPRPRPRPQFCPRP
OUTPUT: -0.0424

INPUT: Report shrunken log2 fold change on Escherichia coli TOP10 for this entry: RRIRSRPPRLPRPRPRPMREPRP
OUTPUT: 0.142

INPUT: Report shrunken log2 fold change on Escherichia coli TOP10 for this entry: RRIRARPPRLPRPRPRPLLPPRP
OUTPUT: 0.419

----------
system: Escherichia coli TOP10; test: shrunken log2 fold change of peptide-encoding DNA abundance (4.5 h post-induction vs induction); higher = less antimicrobial activity (less host growth inhibition); details: time post-induction: 4.5 h; library: site-saturation at positions 5, 18, 19, 20;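 further: peptides expressed intracellularly from a pBAD plasmid library in pooled LB shake-flask culture, induced with 0.3% L-arabinose, DNA abundance read by NGS, three biological replicates, DESeq2 with apeglm shrinkage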
Listed below: shrunken log2 fold change values for each entry.
API note: the answer field is a bare number with no unit suffix.

Examples from the recorded data:
- RRIRDRPPRLPRPRPRPWNGPRP: -0.176
- RRIRWRPPRLPRPRPRPYCGPRP: -0.187
- RRIRGRPPRLPRPRPRPLNLPRP: -0.018
- RRIRTRPPRLPRPRPRPMCYPRP: -0.252
- RRIRPRPPRLPRPRPRPNAHPRP: 0.247
- RRIRLRPPRLPRPRPRPIQMPRP: -0.0252
- RRIRCRPPRLPRPRPRPWHLPRP: -0.221
- RRIRQRPPRLPRPRPRPILAPRP: 0.465
- RRIRARPPRLPRPRPRPRDKPRP: 0.442

Turning now to a further record.
INPUT: Report shrunken log2 fold change on Escherichia coli TOP10 for this entry: RRIRHRPPRLPRPRPRPCHSPRP
OUTPUT: -0.19
